src = ChEMBL document CHEMBL5357042

# assayed-target: Mitogen-activated protein kinase kinase kinase 7 (Homo sapiens) (UniProt O43318)
# Sequence (whole entry): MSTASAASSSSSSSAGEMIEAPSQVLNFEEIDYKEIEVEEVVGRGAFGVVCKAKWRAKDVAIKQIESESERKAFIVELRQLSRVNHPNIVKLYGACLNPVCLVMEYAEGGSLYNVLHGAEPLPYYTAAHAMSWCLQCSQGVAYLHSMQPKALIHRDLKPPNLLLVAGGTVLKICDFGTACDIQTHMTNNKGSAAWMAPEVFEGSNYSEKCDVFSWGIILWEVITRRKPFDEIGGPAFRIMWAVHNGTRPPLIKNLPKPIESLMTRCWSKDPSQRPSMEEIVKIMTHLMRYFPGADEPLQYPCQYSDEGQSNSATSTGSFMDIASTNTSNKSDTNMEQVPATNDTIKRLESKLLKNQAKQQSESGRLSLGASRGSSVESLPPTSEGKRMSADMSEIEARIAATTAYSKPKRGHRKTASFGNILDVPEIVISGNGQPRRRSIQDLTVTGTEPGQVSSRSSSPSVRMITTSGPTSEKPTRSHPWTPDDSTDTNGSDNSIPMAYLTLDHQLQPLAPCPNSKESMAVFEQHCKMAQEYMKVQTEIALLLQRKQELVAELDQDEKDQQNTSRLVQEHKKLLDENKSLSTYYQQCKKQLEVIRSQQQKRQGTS
# method: Inhibition of TAK1 (unknown origin) at 500 nM by ADP-Glo kinase assay
experimental-readout: inhibition

[
  {
    "smi": "CNC(=O)c1ccc(-c2cnc3ccc(N4C[C@@H](C)O[C@@H](C)C4)nn23)cc1",
    "inhibition": "< 50%"
  },
  {
    "smi": "C[C@@H]1CN(c2ccc3ncc(-c4ccc5c(cnn5C)c4)n3n2)C[C@H](C)O1",
    "inhibition": "< 50%"
  },
  {
    "smi": "Cc1n[nH]c2ccc(-c3cnc4ccc(N5CCOCC5)nn34)cc12",
    "inhibition": "> 50%"
  }
]

Consider now this further compound.
Q: Provide inhibition value for the following compound: COCCN1CCN(c2ccc3ncc(-c4ccc5[nH]nc(C)c5c4)n3n2)CC1
A: > 50%

* * *

Measured inhibition by item
# assayed-target: Mitogen-activated protein kinase kinase kinase 7 (Homo sapiens) (UniProt O43318)
# method: Inhibition of TAK1 (unknown origin) at 500 nM by ADP-Glo kinase assay

Consider the reported inhibition for these compounds:
[
  {
    "smi": "Cc1n[nH]c2ccc(-c3cnc4ccc(N5CC6CCC(C5)O6)nn34)cc12",
    "recorded-result": "> 50%"
  },
  {
    "smi": "Cc1n[nH]c2ccc(-c3cnc4ccc(N5C[C@@H](C)O[C@H](C)C5)nn34)cc12",
    "recorded-result": "> 50%"
  }
]

Q: Provide inhibition value for the following compound: Cc1n[nH]c2ccc(-c3cnc4ccc(N5C[C@H]6C[C@@H]5CO6)nn34)cc12
A: > 50%

Q: Provide inhibition value for the following compound: C[C@@H]1CN(c2ccc3ncc(-c4cccc5[nH]ncc45)n3n2)C[C@H](C)O1
A: < 50%

Q: Provide inhibition value for the following compound: C[C@@H]1CN(c2ccc3ncc(-c4ccc(S(N)(=O)=O)cc4)n3n2)C[C@H](C)O1
A: < 50%

* * *

# assayed-target: Mitogen-activated protein kinase kinase kinase 7 (Homo sapiens) (UniProt O43318)
# method: Inhibition of TAK1 (unknown origin) at 100 nM by ADP-Glo kinase assay
experimental-readout: inhibition

[
  {
    "smi": "Cc1n[nH]c2ccc(-c3cnc4ccc(N5C[C@@H](C)O[C@H](C)C5)nn34)cc12",
    "assayed-target": "Mitogen-activated protein kinase kinase kinase 7 (Homo sapiens) (UniProt O43318)",
    "recorded-result": "> 50%"
  },
  {
    "smi": "C[C@@H]1CN(c2ccc3ncc(-c4ccc5[nH]ncc5c4)n3n2)C[C@H](C)O1",
    "assayed-target": "Mitogen-activated protein kinase kinase kinase 7 (Homo sapiens) (UniProt O43318)",
    "recorded-result": "> 50%"
  },
  {
    "smi": "Cc1n[nH]c2ccc(-c3cnc4ccc(N5CCO[C@@H](C)C5)nn34)cc12",
    "assayed-target": "Mitogen-activated protein kinase kinase kinase 7 (Homo sapiens) (UniProt O43318)",
    "recorded-result": "> 50%"
  },
  {
    "smi": "C[C@@H]1CN(c2ccc3ncc(-c4ccc(C(N)=O)cc4)n3n2)C[C@H](C)O1",
    "assayed-target": "Mitogen-activated protein kinase kinase kinase 7 (Homo sapiens) (UniProt O43318)",
    "recorded-result": "< 50%"
  },
  {
    "smi": "Cc1n[nH]c2ccc(-c3cnc4ccc(N5C[C@H]6C[C@@H]5CO6)nn34)cc12",
    "assayed-target": "Mitogen-activated protein kinase kinase kinase 7 (Homo sapiens) (UniProt O43318)",
    "recorded-result": "> 50%"
  }
]

Q: Provide inhibition value for the following compound: Cc1n[nH]c2ccc(-c3cnc4cccnn34)cc12
A: 26%

Q: Provide inhibition value for the following compound: CCc1n[nH]c2ccc(-c3cnc4ccc(N5C[C@@H](C)O[C@@H](C)C5)nn34)cc12
A: > 50%
